Tested on: ROS1
Experiment: ROS1 degradation in Ba/F3 cells (WES immunoblotting)
Type: cell-based
Details: concentration needed to reduce ROS1 protein by 50%, Ba/F3 cells
measured.metric: DC50 (nM)
Form entry: value (nM) — number only.

>  <compound>
COc1cc(N2CCC(N3CCN(CCC4CCN(c5ccc(NC6CCC(=O)NC6=O)cc5)CC4)CC3)CC2)ccc1Nc1ncc(Cl)c(Nc2ccccc2P(C)(C)=O)n1 (centres unmarked) [9t]

>  <units>
nM

>  <DC50>
56

$$$$
>  <compound>
COc1cc(N2CCN(c3ccc4c(c3)CN(C3CCC(=O)NC3=O)C4=O)CC2)ccc1Nc1ncc(Cl)c(Nc2ccccc2P(C)(C)=O)n1 (centres unmarked) [9l]

>  <units>
nM

>  <DC50>
8

$$$$
>  <compound>
C[C@@H](Oc1cc(-c2cnn(C3CCN(CC4CCN(c5ccc6c(c5)C(=O)N(C5CCC(=O)NC5=O)C6=O)CC4)CC3)c2)cnc1N)c1c(Cl)ccc(F)c1Cl (some centres unmarked) [7g]

>  <units>
nM

>  <DC50>
21

$$$$
>  <compound>
C[C@@H](Oc1cc(-c2cnn(C3CCN(CC4CN(c5ccc6c(c5)C(=O)N(C5CCC(=O)NC5=O)C6=O)C4)CC3)c2)cnc1N)c1c(Cl)ccc(F)c1Cl (some centres unmarked) [7f]

>  <units>
nM

>  <DC50>
622

$$$$

I have this compound here, Cc1cc(Nc2ncc(Cl)c(Nc3ccccc3S(=O)(=O)C(C)C)n2)c(OC(C)C)cc1C1CCN(C2CCN(CC3CCN(c4ccc5c(c4)C(=O)N(C4CCC(=O)NC4=O)C5=O)CC3)CC2)CC1 (centres unmarked) [8t] , and I need its recorded DC50.
155

I have this compound here, COc1cc(N2CCC(N3CCN(C4CN(c5ccc6c(c5)C(=O)N(C5CCC(=O)NC5=O)C6=O)C4)CC3)CC2)ccc1Nc1ncc(Cl)c(Nc2ccccc2P(C)(C)=O)n1 (centres unmarked) [9d] , and I need its recorded DC50.
75

I have this compound here, Cc1cc(Nc2ncc(Cl)c(Nc3ccccc3S(=O)(=O)C(C)C)n2)c(OC(C)C)cc1C1CCN(CCCNc2ccc3c(c2)C(=O)N(C2CCC(=O)NC2=O)C3=O)CC1 (centres unmarked) [8i] , and I need its recorded DC50.
88

I have this compound here, Cc1cc(Nc2ncc(Cl)c(Nc3ccccc3S(=O)(=O)C(C)C)n2)c(OC(C)C)cc1C1CCN(CCCNc2cccc3c2C(=O)N(C2CCC(=O)NC2=O)C3=O)CC1 (centres unmarked) [8b] , and I need its recorded DC50.
140
